Biological target: full length human recombinant glucocorticoid receptor (Homo sapiens)
Construct: It contains some partially purified full length human recombinant glucocorticoid receptor
Assay: Glucocorticoid Receptor Binding Assay (Glucocorticoid Receptor Competitor Assay far red kit, fluorescence polarization)
Conditions: competition with fluorescent GR ligand Fluormone GS Far Red, 3 hours at 22° C., pH 7.4; Ki calculated from IC50 by Cheng-Prusoff

molecule: COC(=O)c1ccc(-c2ccc([C@H](C)[C@](O)(c3ccc4c(c3)N(C)C(=O)CO4)C(F)(F)F)c(Cl)c2)cc1OC (relative stereo)
testedTarget: full length human recombinant glucocorticoid receptor (Homo sapiens)
Ki (nM): 2.6

molecule: C[C@@H](c1cc(OCC(=O)O)ccc1Cl)[C@](O)(c1ccc2c(c1)N(C)C(=O)CO2)C(F)(F)F (relative stereo)
testedTarget: full length human recombinant glucocorticoid receptor (Homo sapiens)
Ki (nM): 426

molecule: C[C@H](c1ccc(-c2ccc(C(=O)O)c(F)c2)cc1Cl)[C@@](O)(c1cccc2c1OCC(=O)N2C)C(F)(F)F (stereo in doubt)
testedTarget: full length human recombinant glucocorticoid receptor (Homo sapiens)
Ki (nM): 281

###

Target: full length human recombinant glucocorticoid receptor (Homo sapiens)
Construct: It contains some partially purified full length human recombinant glucocorticoid receptor
Sequence (P04150 1-777): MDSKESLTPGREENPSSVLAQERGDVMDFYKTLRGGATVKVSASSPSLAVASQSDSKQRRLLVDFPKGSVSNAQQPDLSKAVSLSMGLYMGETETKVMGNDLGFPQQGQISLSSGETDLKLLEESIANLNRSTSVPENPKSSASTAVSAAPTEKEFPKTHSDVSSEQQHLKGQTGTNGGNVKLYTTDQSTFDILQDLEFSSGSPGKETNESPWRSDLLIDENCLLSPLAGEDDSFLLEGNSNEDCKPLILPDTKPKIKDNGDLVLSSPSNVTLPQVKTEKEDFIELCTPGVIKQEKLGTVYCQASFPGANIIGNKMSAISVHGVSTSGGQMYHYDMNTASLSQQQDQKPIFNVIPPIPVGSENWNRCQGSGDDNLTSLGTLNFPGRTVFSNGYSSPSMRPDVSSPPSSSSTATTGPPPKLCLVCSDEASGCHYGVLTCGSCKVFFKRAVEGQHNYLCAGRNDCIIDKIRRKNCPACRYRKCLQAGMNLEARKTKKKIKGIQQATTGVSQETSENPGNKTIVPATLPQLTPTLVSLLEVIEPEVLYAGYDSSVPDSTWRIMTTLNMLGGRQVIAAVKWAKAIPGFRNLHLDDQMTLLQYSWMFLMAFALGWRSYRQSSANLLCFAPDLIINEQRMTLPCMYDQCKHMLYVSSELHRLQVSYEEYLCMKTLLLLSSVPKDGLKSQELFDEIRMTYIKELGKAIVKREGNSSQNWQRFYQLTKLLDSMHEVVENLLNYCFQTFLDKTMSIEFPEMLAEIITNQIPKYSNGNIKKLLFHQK
Test: Glucocorticoid Receptor Binding Assay (Glucocorticoid Receptor Competitor Assay far red kit, fluorescence polarization)
Settings: competition with fluorescent GR ligand Fluormone GS Far Red, 3 hours at 22° C., pH 7.4; Ki calculated from IC50 by Cheng-Prusoff
pKi: −log10 of the molar value.

compound: COC(=O)c1ccc(-c2ccc([C@@H](C)[C@@](O)(c3ccc4oc(=O)n(C)c4c3)C(F)(F)F)c(Cl)c2)c(F)c1 (relative stereo)
pKi: 9.00
//
compound: C[C@@H](c1ccc(Oc2ccc(C(=O)O)c(Cl)c2)cc1Cl)[C@](O)(c1ccc2c(c1)N(C)C(=O)CO2)C(F)(F)F
pKi: 9.10
//
compound: C[C@H](c1ccc(Oc2ncc(C(=O)O)cc2Cl)cc1Cl)[C@@](O)(c1ccc2c(c1)OCC(=O)N2C)C(F)(F)F (stereo in doubt)
pKi: 9.05
//
compound: C[C@H](c1ccc(Oc2cc(Cl)c(C(=O)O)cn2)cc1Cl)[C@@](O)(c1ccc2oc(=O)n(C)c2c1)C(F)(F)F (relative stereo)
pKi: 9.15
//
compound: C[C@H](c1ccc(-c2cncc(C(=O)O)c2)cc1Cl)[C@@](O)(c1ccc2oc(=O)n(C)c2c1)C(F)(F)F (relative stereo)
pKi: 8.85
//
compound: COC(=O)c1ccc(Oc2ccc([C@H](C)[C@](O)(c3cc4c(cc3F)OCC(=O)N4C)C(F)(F)F)c(Cl)c2)cc1Cl (relative stereo)
pKi: 9.22

Cited source for all entries: patent US8450313B2
